Origin of values: patent US5043450A

system: P. aeruginosa IID 1210; experiment: Antibacterial spectra, MIC; format: cell-based; details: Pseudomonas aeruginosa, IID1210
measured_metric: MIC (µg/mL)
Field format: number, assumed µg/mL, no unit text.

{"molecule": "COc1c(N2CCC(N)C2)c(F)cc2c(=O)c(C(=O)O)cn(C3CC3)c12 (stereo not drawn)", "measured_metric": "MIC", "meas_value": 0.39}
{"molecule": "COc1c(N2C[C@@H](C)[C@H](N)C2)c(F)cc2c(=O)c(C(=O)O)cn(C3CC3)c12 (relative stereo)", "measured_metric": "MIC", "meas_value": 0.78}
{"molecule": "COc1c(N2CCNCC2)c(F)cc2c(=O)c(C(=O)O)cn(C3CC3)c12", "measured_metric": "MIC", "meas_value": 0.39}

Determine its reported MIC: COc1c(N2CCNC(C)C2)c(F)cc2c(=O)c(C(=O)O)cn(C3CC3)c12 (stereo not drawn) 1.56

Determine its reported MIC: COc1c(N2CCC(CN)C2)c(F)cc2c(=O)c(C(=O)O)cn(C3CC3)c12 (stereo not drawn) 0.78

Determine its reported MIC: COc1c(N2C[C@@H](N)[C@@H](C)C2)c(F)cc2c(=O)c(C(=O)O)cn(C3CC3)c12 (relative stereo) 0.78

---

Recorded MIC values for a group of compounds are listed next.
system: C. perfringens KYA 13123; test: microbe, parasite or virus in culture; type: cell-based; details: Clostridium perfringens, KYA13123
Field format: number, assumed µg/mL, no unit text.

{"compound": "COc1c(N2CCNC(C)C2)c(F)cc2c(=O)c(C(=O)O)cn(C3CC3)c12 (stereo not shown)", "experimental_system": "C. perfringens KYA 13123", "meas_value": 0.39}

Determine its reported MIC: COc1c(N2C[C@@H](C)[C@H](N)C2)c(F)cc2c(=O)c(C(=O)O)cn(C3CC3)c12 (relative stereo) 0.2

Determine its reported MIC: COc1c(N2CCC(N)C2)c(F)cc2c(=O)c(C(=O)O)cn(C3CC3)c12 (stereo not shown) 0.2

Determine its reported MIC: COc1c(N2CCC(N)C2)c(F)c(N)c2c(=O)c(C(=O)O)cn(C3CC3)c12 (stereo not shown) 0.78

---

test system: P. aeruginosa IID 1210; assay: Antibacterial spectra, MIC; format: cell-based; settings: Pseudomonas aeruginosa, IID1210; 10^6 cells/ml; Gram -; read-out: MIC
measured_metric: MIC (µg/mL)
Field format: number, assumed µg/mL, no unit text.

Worked examples follow.
{"compound": "COc1c(N2CCNCC2)c(F)c(N)c2c(=O)c(C(=O)O)cn(C3CC3)c12", "experimental_system": "P. aeruginosa IID 1210", "MIC / µg/mL": 1.56}
{"compound": "COc1c(N2CCN(C)CC2)c(F)cc2c(=O)c(C(=O)O)cn(C3CC3)c12", "experimental_system": "P. aeruginosa IID 1210", "MIC / µg/mL": 1.56}
{"compound": "CCNCC1CCN(c2c(F)cc3c(=O)c(C(=O)O)cn(C4CC4)c3c2OC)C1 (stereo not drawn)", "experimental_system": "P. aeruginosa IID 1210", "MIC / µg/mL": 6.25}
{"compound": "CCOc1c(N2CCNCC2)c(F)cc2c(=O)c(C(=O)O)cn(C3CC3)c12", "experimental_system": "P. aeruginosa IID 1210", "MIC / µg/mL": 6.25}
{"compound": "COc1c(N2CCC(N)C2)c(F)c(N)c2c(=O)c(C(=O)O)cn(C3CC3)c12 (stereo not drawn)", "experimental_system": "P. aeruginosa IID 1210", "MIC / µg/mL": 1.56}

Turning now to a further compound:
Determine its reported MIC: CNCC1CCN(c2c(F)cc3c(=O)c(C(=O)O)cn(C4CC4)c3c2OC)C1 (stereo not drawn) 12.5

---

tested on: P. aeruginosa IFO 12689; test: Antibacterial spectra, MIC; type: cell-based; conditions: Pseudomonas aeruginosa, IFO12689
Recorded MIC values for a group of compounds are listed next.
Field format: number, assumed µg/mL, no unit text.

Worked examples follow.
{"compound": "COc1c(N2C[C@@H](N)[C@@H](C)C2)c(F)cc2c(=O)c(C(=O)O)cn(C3CC3)c12 (relative stereo) [Exp. 5]", "measured_metric": "MIC", "meas_value": 0.78}
{"compound": "COc1c(N2CCC(N)C2)c(F)cc2c(=O)c(C(=O)O)cn(C3CC3)c12 (stereo not drawn) [Exp. 4]", "measured_metric": "MIC", "meas_value": 0.39}
{"compound": "COc1c(N2CCNC(C)C2)c(F)cc2c(=O)c(C(=O)O)cn(C3CC3)c12 (stereo not drawn) [Exp. 3]", "measured_metric": "MIC", "meas_value": 1.56}
{"compound": "COc1c(N2CCC(CN)C2)c(F)cc2c(=O)c(C(=O)O)cn(C3CC3)c12 (stereo not drawn) [Exp. 7]", "measured_metric": "MIC", "meas_value": 0.78}
{"compound": "COc1c(N2C[C@@H](C)[C@H](N)C2)c(F)cc2c(=O)c(C(=O)O)cn(C3CC3)c12 (relative stereo) [Exp. 6]", "measured_metric": "MIC", "meas_value": 0.78}

Turning now to a further compound:
Determine its reported MIC: CNCC1CCN(c2c(F)cc3c(=O)c(C(=O)O)cn(C4CC4)c3c2OC)C1 (stereo not drawn) [Exp. 8] 3.13

---

test system: K. pneumoniae 1-220S; assay: Antibacterial spectra, MIC; type: cell-based; settings: Klebsiella pneumoniae, 1220S
Recorded MIC values for a group of compounds are listed next.
Field format: number, assumed µg/mL, no unit text.

Worked examples follow.
{"compound": "CNCC1CCN(c2c(F)cc3c(=O)c(C(=O)O)cn(C4CC4)c3c2OC)C1 (centres unmarked)", "meas_value": 0.1}
{"compound": "COc1c(N2CCC(N)C2)c(F)c(N)c2c(=O)c(C(=O)O)cn(C3CC3)c12 (centres unmarked)", "meas_value": 0.2}
{"compound": "COc1c(N2CCC(N)C2)c(F)cc2c(=O)c(C(=O)O)cn(C3CC3)c12 (centres unmarked)", "meas_value": 0.05}

Determine its reported MIC: COc1c(N2CCNC(C)C2)c(F)cc2c(=O)c(C(=O)O)cn(C3CC3)c12 (centres unmarked) 0.05

Determine its reported MIC: COc1c(N2CCC(CN)C2)c(F)cc2c(=O)c(C(=O)O)cn(C3CC3)c12 (centres unmarked) 0.1

---

system: B. vulgatus KYA 29327; test: Antibacterial spectra, MIC; type: cell-based; conditions: Phocaeicola vulgatus, KYA29327
Recorded MIC values for a group of molecules are listed next.
Field format: number, assumed µg/mL, no unit text.

Worked examples follow.
{"molecule": "COc1c(N2CCC(N)C2)c(F)cc2c(=O)c(C(=O)O)cn(C3CC3)c12 (stereo not shown) [Exp. 4]", "measured_metric": "MIC", "meas_value": 0.39}
{"molecule": "CNCC1CCN(c2c(F)cc3c(=O)c(C(=O)O)cn(C4CC4)c3c2OC)C1 (stereo not shown) [Exp. 8]", "measured_metric": "MIC", "meas_value": 3.13}
{"molecule": "COc1c(N2CCC(N)C2)c(F)c(N)c2c(=O)c(C(=O)O)cn(C3CC3)c12 (stereo not shown) [Exp. 11]", "measured_metric": "MIC", "meas_value": 0.78}
{"molecule": "COc1c(N2CCN(C)CC2)c(F)cc2c(=O)c(C(=O)O)cn(C3CC3)c12 [Exp. 2]", "measured_metric": "MIC", "meas_value": 0.39}
{"molecule": "COc1c(N2CCNC(C)C2)c(F)cc2c(=O)c(C(=O)O)cn(C3CC3)c12 (stereo not shown) [Exp. 3]", "measured_metric": "MIC", "meas_value": 0.78}

Determine its reported MIC: COc1c(N2CCNCC2)c(F)c(N)c2c(=O)c(C(=O)O)cn(C3CC3)c12 [Exp. 10] 0.39

Determine its reported MIC: COc1c(N2C[C@@H](C)[C@H](N)C2)c(F)cc2c(=O)c(C(=O)O)cn(C3CC3)c12 (relative stereo) [Exp. 6] 0.2

Determine its reported MIC: COc1c(N2C[C@@H](N)[C@@H](C)C2)c(F)cc2c(=O)c(C(=O)O)cn(C3CC3)c12 (relative stereo) [Exp. 5] 0.2

Determine its reported MIC: COc1c(N2CCC(CN)C2)c(F)cc2c(=O)c(C(=O)O)cn(C3CC3)c12 (stereo not shown) [Exp. 7] 0.39

Determine its reported MIC: CCNCC1CCN(c2c(F)cc3c(=O)c(C(=O)O)cn(C4CC4)c3c2OC)C1 (stereo not shown) [Exp. 9] 0.39

---

Recorded MIC values for a group of molecules are listed next.
tested on: Peptococcus magnus KY 017; experiment: Antibacterial spectra, MIC; format: cell-based; conditions: Finegoldia magna, KY017
Field format: number, assumed µg/mL, no unit text.

Provide MIC, tested on Peptococcus magnus KY 017, for COc1c(N2CCC(CN)C2)c(F)cc2c(=O)c(C(=O)O)cn(C3CC3)c12 (centres unmarked) . 0.05

Provide MIC, tested on Peptococcus magnus KY 017, for COc1c(N2C[C@@H](N)[C@@H](C)C2)c(F)cc2c(=O)c(C(=O)O)cn(C3CC3)c12 (relative stereo) . 0.1

Provide MIC, tested on Peptococcus magnus KY 017, for COc1c(N2CCNC(C)C2)c(F)cc2c(=O)c(C(=O)O)cn(C3CC3)c12 (centres unmarked) . 0.2

Provide MIC, tested on Peptococcus magnus KY 017, for COc1c(N2CCC(N)C2)c(F)c(N)c2c(=O)c(C(=O)O)cn(C3CC3)c12 (centres unmarked) . 0.78

Provide MIC, tested on Peptococcus magnus KY 017, for COc1c(N2CCC(N)C2)c(F)cc2c(=O)c(C(=O)O)cn(C3CC3)c12 (centres unmarked) . 0.1
